Cited source for all entries: the RNAGym collection of RNA variant scans (doi:10.7554/elife.80360)

B1: Twister Ribozyme (parent)
chain: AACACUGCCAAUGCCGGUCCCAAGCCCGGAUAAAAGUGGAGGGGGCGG

variants of: B1; test: self-cleavage, relative activity (ratio to wild type); higher = more cleavage; co-transcriptional
Quick list: self-cleavage per entry.

Below, each entry is followed by its recorded self-cleavage result.
C3U A35C : 0.493
C27G G47C : 0.0485
A1C C21G : 0.0972
C27G G39A : 0.0704
A35G G45A : 0.889
U31C G39C : 0.111
U31A U37G : 0.659
G29U G43C : 0.19

-- ask Fill blank: measured self-cleavage of the variant U18C G48A is ____.
-- reply 0.368

-- ask Recorded self-cleavage of U6A U18C , please.
-- reply 0.208

-- ask Item U31C A40C has what recorded self-cleavage?
-- reply 0.249
